- SYSTEM NAME: human CB2 receptor (Homo sapiens (Human))
- Sequence (P34972 whole entry): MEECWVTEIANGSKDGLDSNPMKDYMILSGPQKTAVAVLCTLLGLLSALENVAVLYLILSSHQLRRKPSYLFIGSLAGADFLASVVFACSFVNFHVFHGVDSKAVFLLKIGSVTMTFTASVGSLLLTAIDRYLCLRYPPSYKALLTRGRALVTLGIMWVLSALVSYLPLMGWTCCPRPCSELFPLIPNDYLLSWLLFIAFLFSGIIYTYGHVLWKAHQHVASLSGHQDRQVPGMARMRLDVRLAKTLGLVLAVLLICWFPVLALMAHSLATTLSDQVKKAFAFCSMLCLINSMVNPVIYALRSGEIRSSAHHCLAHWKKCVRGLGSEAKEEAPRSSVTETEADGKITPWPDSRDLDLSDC
pKi: −log10 of the molar value.
Classes (pKi): c1: < 7; c2: ≥ 7 and < 8; c3: ≥ 8

Please let me know in which category the item `CC(C)(C)c1nc(N2CCC3(C2)N=N3)c2nnn(Cc3ccccc3Cl)c2n1` belongs.
c3

Please let me know in which category the item `C#Cc1cccc(C2(C(F)(F)F)N=N2)c1Cn1nnc2c(N3CC[C@H](O)C3)nc(C(F)(F)c3ccccc3)nc21` belongs.
c2

Please let me know in which category the item `C#Cc1cccc(C2(C(F)(F)F)N=N2)c1Cn1nnc2c(N3CCC(F)(F)C3)nc(C(F)(F)c3ccccc3)nc21` belongs.
c2

Please let me know in which category the item `C#CCCC1(CCNC(=O)c2nonc2Cn2nnc3c(N4CC[C@H](O)C4)nc(C(C)(C)C)nc32)N=N1` belongs.
c1

Please let me know in which category the item `C#Cc1ccccc1Cn1nnc2c(N3CCC4(C3)N=N4)nc(C(F)(F)c3ccccc3)nc21` belongs.
c2

Please let me know in which category the item `FC(F)(F)c1ccccc1Cn1nnc2c(N3CCC4(C3)N=N4)nc(C(F)(F)c3ccccc3)nc21` belongs.
c3

Please let me know in which category the item `C#CCCC1(CCNC(=O)c2nonc2Cn2nnc3c(N4CCC(F)(F)C4)nc(C(C)(C)C)nc32)N=N1` belongs.
c1

Please let me know in which category the item `CC(C)(C)c1nc(N2CCC(F)(F)C2)c2nnn(Cc3ccc(C4(C(F)(F)F)N=N4)cc3Cl)c2n1` belongs.
c2

Please let me know in which category the item `CC(C)(C)c1nc(N2CCC(F)(F)C2)c2nnn(Cc3ccccc3C3(C(F)(F)F)N=N3)c2n1` belongs.
c3

Please let me know in which category the item `C#Cc1ccccc1Cn1nnc2c(N3CCC4(C3)N=N4)nc(C(C)(C)C)nc21` belongs.
c3

Please let me know in which category the item `Cc1nonc1Cn1nnc2c(N3CCC4(C3)N=N4)nc(C(F)(F)c3ccccc3)nc21` belongs.
c2
